- target_entity: T1, RBFOX1 RRM (Homo sapiens, UniProt Q9NWB1 109-208)
- T1 sequence: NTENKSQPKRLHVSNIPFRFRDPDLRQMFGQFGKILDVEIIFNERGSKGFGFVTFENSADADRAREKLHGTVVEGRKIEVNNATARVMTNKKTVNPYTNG
- assay_notes: EMSA; HiTS-Eq, 1 nM pool, 10 min; buffer printed only for the single-RNA assays: 10 mM Tris pH 7.5, 150 mM NaCl, 3.4 mM EDTA, 0.001% NP-40, 30 C
- condition_label: tags: His6 N-terminal (pET28a); label: 5' 32P
In all, about 16,000 sequences were measured (“ka relative to ugcaugu”: median about 0.0091, highest 2% from about 0.032 on). Shown is part of a subset that was picked to be rich in the highest values.
Overview of recorded binding signal for various binders

binder	binding signal
GGGAUGU (DNA:RNA) RNA: GGGAGACCGGAAUUCAGAUUGUCCGGGAUGUUUAAAUCCCGUCGUAGCCACCA DNA 1: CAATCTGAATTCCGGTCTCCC DNA 2: TGGTGGCTACGACGGGATT	0.048 KA relative to UGCAUGU

Problem: I have this binder here, GUGGAUG (DNA:RNA) RNA: GGGAGACCGGAAUUCAGAUUGUCCGUGGAUGUUAAAUCCCGUCGUAGCCACCA DNA 1: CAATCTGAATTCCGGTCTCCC DNA 2: TGGTGGCTACGACGGGATT , and I need its recorded binding signal.
Solution: 0.0371 KA relative to UGCAUGU

Problem: Can you look up the measured binding signal of GGGGAUG (DNA:RNA) RNA: GGGAGACCGGAAUUCAGAUUGUCCGGGGAUGUUAAAUCCCGUCGUAGCCACCA DNA 1: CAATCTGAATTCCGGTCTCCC DNA 2: TGGTGGCTACGACGGGATT for me?
Solution: 0.0389 KA relative to UGCAUGU

Problem: Which value of binding signal has been reported for GUGGAGA (DNA:RNA) RNA: GGGAGACCGGAAUUCAGAUUGUCCGUGGAGAUUAAAUCCCGUCGUAGCCACCA DNA 1: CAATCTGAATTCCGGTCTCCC DNA 2: TGGTGGCTACGACGGGATT in the records?
Solution: 0.0173 KA relative to UGCAUGU
